Here, each record is paired with measured logP at 20 h data.
# ASSAY TEXT: Lipophilicity, log P of the compound incubated at 37 degC for 20 hrs by HPLC based shake flask method
# Assay type: physicochemical
Write no unit; give the number alone.

COMPOUND	logP at 20 h
O=C(NCC1CCOCC1)c1cnc(Nc2ccc(Cl)cc2Cl)nc1C(F)(F)F [GW842166X]	4.27
CCCCCn1c(=O)n(CC(=O)NC(C)(C)C)c(=O)c2c(C)cccc21	2.56
CCCCN1C(=O)/C(=C/NC2CCCCC2)C(=O)c2cccc(C)c21	4.35

The measured logP at 20 h associated with CCCCCn1c(C)c(Br)c(=O)n(CC(=O)NC(C)(C)C)c1=O reads 2.24

* * *

# TARGET UNDER TEST: Cannabinoid receptor 2 (Homo sapiens, UniProt P34972)
# Sequence (P34972 whole entry): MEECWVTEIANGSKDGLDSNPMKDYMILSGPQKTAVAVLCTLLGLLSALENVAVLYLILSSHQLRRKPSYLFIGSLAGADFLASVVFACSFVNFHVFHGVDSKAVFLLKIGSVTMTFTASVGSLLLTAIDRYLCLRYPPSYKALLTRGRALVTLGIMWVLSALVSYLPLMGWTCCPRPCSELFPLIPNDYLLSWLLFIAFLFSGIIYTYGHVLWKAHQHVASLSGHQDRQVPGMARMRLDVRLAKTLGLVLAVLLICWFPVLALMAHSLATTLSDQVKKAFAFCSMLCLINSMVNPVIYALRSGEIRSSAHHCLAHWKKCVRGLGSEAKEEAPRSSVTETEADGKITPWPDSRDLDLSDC
# ASSAY TEXT: Agonist activity at CB2 receptor (unknown origin) expressed in CHO cells co-expressing G-alpha16 incubated for 24 hrs by fluo-4 AM dye based whole-cell calcium mobilization assay
# Format: functional
Here, each record is paired with measured pEC50 data.
Would you please state pEC50, meaning minus log10 of the concentration in mol/L, as a bare number?

COMPOUND	DATA VALUE
CCCCCn1c(=O)n(CC(=O)NC(C)C)c(=O)c2ccccc21	6.67
CCCCn1c(=O)n(CC(=O)NC(C)(C)C)c(=O)c2ccccc21	6.95
CCCn1c(=O)n(CC(=O)NC(C)(C)C)c(=O)c2c(C)cccc21	6.95
CCCCCn1c(=O)n(CC(=O)NC(C)(C)C)c(=O)c2c(OC)cccc21	5.90
CCCCn1c(=O)n(CC(=O)NC(C)(C)C)c(=O)c2c(C)cccc21	7.63

Lab note: next compound to report on.
// compound Cc1cccc2c1c(=O)n(CC(=O)NC(C)(C)C)c(=O)n2CC1CC1 , assay Cannabinoid receptor 2 (Homo sapiens, UniProt P34972), pEC50 value: 7.17

* * *

Here, each record is paired with measured EC50 data.
# TARGET UNDER TEST: Cannabinoid receptor 1 (Homo sapiens)
# Sequence (P21554 whole entry): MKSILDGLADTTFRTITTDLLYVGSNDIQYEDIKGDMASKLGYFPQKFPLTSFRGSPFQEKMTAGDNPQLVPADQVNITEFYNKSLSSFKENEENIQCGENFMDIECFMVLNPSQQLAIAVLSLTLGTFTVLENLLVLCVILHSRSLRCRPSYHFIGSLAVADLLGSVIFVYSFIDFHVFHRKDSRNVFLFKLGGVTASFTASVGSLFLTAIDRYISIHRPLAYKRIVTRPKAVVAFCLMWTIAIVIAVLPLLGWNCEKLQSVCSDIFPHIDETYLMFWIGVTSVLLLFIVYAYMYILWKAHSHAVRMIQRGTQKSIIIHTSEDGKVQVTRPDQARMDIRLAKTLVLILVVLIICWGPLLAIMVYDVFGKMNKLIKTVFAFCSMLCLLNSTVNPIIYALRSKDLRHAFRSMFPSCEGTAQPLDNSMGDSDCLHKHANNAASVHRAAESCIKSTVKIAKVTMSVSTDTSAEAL
# ASSAY TEXT: Agonist activity at CB1 receptor (unknown origin) expressed in CHO cells co-expressing G-alpha16 incubated for 24 hrs by fluo-4 AM dye based whole-cell calcium mobilization assay

Consider the following illustrative entries.
RECORD SMILES	TARGET UNDER TEST	DATA VALUE
CCCn1c(=O)n(CC(=O)NC(C)(C)C)c(=O)c2c(C)cccc21	Cannabinoid receptor 1 (Homo sapiens)	> 10 µM
CCCCCn1c(C)c(I)c(=O)n(CC(=O)NC(C)(C)C)c1=O	Cannabinoid receptor 1 (Homo sapiens)	> 10 µM
Cc1cccc2c(=O)n(CC(=O)NC(C)(C)C)c(=O)n(CC3CC3)c12	Cannabinoid receptor 1 (Homo sapiens)	> 10 µM

The measured EC50 associated with CCCCCn1c(=O)n(CC(=O)NC(C)(C)C)c(=O)c2cccc(C)c21 reads > 10 µM

The measured EC50 associated with CCCCCn1c(=O)n(CC(=O)NC(C)(C)C)c(=O)c2ccccc21 reads > 10 µM

The measured EC50 associated with CCCCCn1c(C)c(Cl)c(=O)n(CC(=O)NC(C)(C)C)c1=O reads > 10 µM

* * *

# TARGET UNDER TEST: UniProtKB P34972
# ASSAY TEXT: Agonist activity at CB2 receptor (unknown origin) expressed in CHO cells co-expressing G-alpha16 incubated for 24 hrs by fluo-4 AM dye based whole-cell calcium mobilization assay relative to CP55940
# Assay type: functional
Rule: yes (1) for Emax not less than 90%, no (0) for anything less.

For orientation, consider the following solved cases.
COMPOUND	CAT
CCCCCn1c(=O)n(CC(=O)NC(C)C)c(=O)c2ccccc21	no (0)
CCCCCn1c(=O)n(CC(=O)NC(C)(C)C)c(=O)c2cccc(C)c21	yes (1)
CCCCCCn1c(C)cc(=O)n(CC(=O)NC(C)(C)C)c1=O	no (0)
CCCCCn1c(=O)n(CC(=O)NCC(C)C)c(=O)c2ccccc21	no (0)
Cc1cccc2c(=O)n(CC(=O)NC(C)(C)C)c(=O)n(CC3CC3)c12	yes (1)

Input line: I'd appreciate it if you could say whether C=CCCn1c(=O)n(CC(=O)NC(C)(C)C)c(=O)c2c(C)cccc21 has Emax at least equal to 90%.
Output line: yes (1)

Input line: I'd appreciate it if you could say whether Cc1cccc2c1c(=O)n(CC(=O)NC(C)(C)C)c(=O)n2CC1CC1 has Emax at least equal to 90%.
Output line: yes (1)

Input line: I'd appreciate it if you could say whether CCCCCn1c(=O)n(CC(=O)NCCCC)c(=O)c2c(C)cccc21 has Emax at least equal to 90%.
Output line: no (0)

Input line: I'd appreciate it if you could say whether CCCn1c(=O)n(CC(=O)NC(C)(C)C)c(=O)c2c(C)cccc21 has Emax at least equal to 90%.
Output line: yes (1)

Input line: I'd appreciate it if you could say whether CCCCCn1c(=O)n(CC(=O)NC2CC2)c(=O)c2ccccc21 has Emax at least equal to 90%.
Output line: no (0)

Input line: I'd appreciate it if you could say whether CCCCCn1c(=O)n(CC(=O)NC(C)(C)C)c(=O)c2c(C)cccc21 has Emax at least equal to 90%.
Output line: no (0)
